Molecular target: Histone-lysine N-methyltransferase EHMT2 (Homo sapiens) (UniProt Q96KQ7)
Sequence (Q96KQ7 913-1193 limits assumed): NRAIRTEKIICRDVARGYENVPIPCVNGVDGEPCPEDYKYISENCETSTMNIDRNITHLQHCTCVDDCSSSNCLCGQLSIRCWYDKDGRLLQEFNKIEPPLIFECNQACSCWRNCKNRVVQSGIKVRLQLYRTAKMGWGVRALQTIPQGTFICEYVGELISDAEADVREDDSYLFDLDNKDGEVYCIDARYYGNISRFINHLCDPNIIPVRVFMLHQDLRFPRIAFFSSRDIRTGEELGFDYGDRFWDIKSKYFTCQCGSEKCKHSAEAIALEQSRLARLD
Assay: qHTS Assay for Inhibitors of Histone Lysine Methyltransferase G9a; also: nearly all actives have a fitted effect of over 75% in size; also: potency is read from the fitted curve at half-maximal effect
Conditions: G9a H3K9 monomethylation, AlphaScreen, 2 h; series mostly up to 59 µM
The campaign covered roughly 350,000 compounds. About 31,000 (8.9%) were called active. Not shown: some 15% with an inconclusive outcome. Shown is part of a subset that was picked to be rich in actives.
RECORDED METRIC: Potency

Example cases with answers are listed next.
COMPOUND: COc1ccc(Nc2ccc([N+](=O)[O-])cn2)cn1
Potency: inactive
--
COMPOUND: Cc1cccc(-n2c(=O)c3c(c4cc(C)ccc4n3C)n(CC(=O)Nc3ccccc3Cl)c2=O)c1
Potency: inactive
--
COMPOUND: O=C(CNC(=O)C(c1ccccc1)c1ccccc1)N/N=C\c1ccc2c(c1)OCO2
Potency: inactive
--
COMPOUND: CN(C)c1ccc(N/C=C/C(=O)C(F)(F)F)cc1
Potency: 7.08 µM (active)
--
COMPOUND: CCOc1cc(/C=N/NC(=O)c2cccc(S(=O)(=O)N3CCOCC3)c2)ccc1OCC(=O)N(C)C
Potency: inactive

QUERY: Consider the compound shown here: COc1ccc2cc(S(=O)(=O)Nc3ccccn3)ccc2c1 What is its recorded Potency?
RESULT: inactive

QUERY: Same for Cc1ccccc1C(OCCN(C)C)C1CCCCC1 (centres undefined)
RESULT: 3.16 µM (active)

QUERY: Same for O=C(NCCCn1ccnc1)c1ccccc1F
RESULT: inactive

QUERY: Same for COc1ccc(N2C(=O)CNC2=S)cc1
RESULT: inactive

QUERY: Same for COc1ccc(S(=O)(=O)/N=C2\C=C(NS(=O)(=O)c3ccccc3)C(=O)c3ccccc32)cc1
RESULT: 8.91 µM (active)

QUERY: Same for COc1cccc(-n2c(=O)c3c(C)c(C(=O)N(C)C)sc3n(Cc3cccc(C)c3)c2=O)c1
RESULT: inactive

QUERY: Same for CCOC(=O)c1cccc(NS(=O)(=O)c2cn(C)c(C)n2)c1
RESULT: inactive

QUERY: Same for CCc1ccc(NC(=O)CCS(=O)(=O)c2cc3c(cc2Cl)NC(=O)CO3)cc1
RESULT: inactive

QUERY: Same for Cc1ccc(C(=O)N2c3ncnn3C3(CCCCC3)[C@@H]3CCCC[C@@H]32)cc1
RESULT: inactive

QUERY: Same for CCCC(=O)Nc1ccc(C(=O)NCCCn2ccnc2)cc1
RESULT: inactive

QUERY: Same for CC(c1ccccn1)N(C)C(=O)c1ccc2nc(Cc3cccc(Cl)c3)oc2c1 (centres undefined)
RESULT: inactive

QUERY: Same for O=C(Nc1ccc2nc(SCC(=O)N3CCCc4ccccc43)sc2c1)c1ccc(F)cc1
RESULT: inactive

QUERY: Same for CCOc1cc(/C=N/O)ccc1OCc1ccccc1F
RESULT: inactive

QUERY: Same for COC(=O)c1sccc1S(=O)(=O)N(CC(=O)Nc1ccc(C)c(F)c1)c1ccc(C)c(C)c1
RESULT: inactive

QUERY: Same for O=[N+]([O-])c1ccc(N2CCNCC2)cc1NCc1cccnc1
RESULT: inactive

QUERY: Same for CCOC(=O)c1nnn(CC(=O)NC(=O)Nc2ccccc2F)c1C(=O)OCC
RESULT: inactive

QUERY: Same for O=C(/C=C/Nc1ccccc1OC(F)(F)F)C(F)(F)F
RESULT: inactive

QUERY: Same for O=C1/C(=C/c2cccs2)CCc2ccccc21
RESULT: inactive

QUERY: Same for O=C(Nc1ccccc1)c1cc2ccccc2[nH]1
RESULT: inactive

QUERY: Same for S=c1ccc2ccccc2[nH]1
RESULT: 4.47 µM (active)
